Sourced from patent US10597674B2

- Tested on: HPPD polypeptides (wild-type SEQ ID NO:1 and mutants)
- PARTICULARS: in the presence of Cmpd. 2, 15 μM inhibitor, high substrate concentration; kapp normalized to kapp without inhibitor
The following molecules are shown together with reported Residual activity values.

MOLECULE	UNIT TEXT	Residual activity
7 (protein, mutant HPPD polypeptide) MADLYENPMGLMGFEFIEFASPTPGTLEPIFEIMGFTKVATHRSKNVHLYRQGEINLILNNEPNSIASYFAAEHGPSVCGMAFRVKDSQKAYNRALELGAQPIHIDTGPMELNLPAIKGIGGAPLYLIDRFGEGSSIYDIDFVYLEGVERNPVGAGLKVIDHLTHNVYRGRMVYWANFYEKLFNFREARYFDIKGEYTGLTSKAMSAPDGMIRIPLNEESSKGAGQIEEFLMQFNGEGIQHVAFLTDDLVKTWDALKKIGMRFMTAPPDTYYEMLEGRLPDHGEPVDQLQARGILLDGSSVEGDKRLLLQIFSETLMGPVFFEFIQRKGDDGFGPDSFKALFESIERDQVRRGVLTAD	%	75
24 (protein, mutant HPPD polypeptide) MADLYENPMGLMGFEFIEFASPTPGTLEPIFEIMGFTKVATHRSKNVHLYRQGEINLILNNEPNSIASYFAAEHGPSVCGMAFRVKDSQKAYNRALELGAQPIHIDTGPMELNLPAIKGIGGAPLYLIDRFGEGSSIYDIDFVYLEGVERNPVGAGLKVIDHLTHNVYRGRMVYWANFYEKLFNFREARYFDIKGEYTGLTSKAMSAPDGMIRIPLNEESSKGAGQIEEFLMQFNGEGIQHVAFLTDDLVKTWDALKKIGMRFMTAPPDTYYEMLEGRLPDHGEPVDQLQARGILLDGSSVEGDKRLLLQIFSETLMGPVFFEFIQRKGDDGFGPHSFKVLFESVERDQVRRGVLTAD	%	90
10 (protein, mutant HPPD polypeptide) MADLYENPMGLMGFEFIEFASPTPGTLEPIFEIMGFTKVATHRSKNVHLYRQGEINLILNNEPNSIASYFAAEHGPSVCGMAFRVKDSQKAYNRALELGAQPIHIDTGPMELNLPAIKGIGGAPLYLIDRFGEGSSIYDIDFVYLEGVERNPVGAGLKVIDHLTHNVYRGRMVYWANFYEKLFNFREARYFDIKGEYTGLTSKAMSAPDGMIRIPLNEESSKGAGQIEEFLMQFNGEGIQHVAFLTDDLVKTWDALKKIGMRFMTAPPDTYYEMLEGRLPDHGEPVDQLQARGILLDGSSVEGDKRLLLQIFSETLMGPVFFEFIQRKGDDGFGPDSFKVLFESVERDQVRRGVLTAD	%	89
30 (protein, mutant HPPD polypeptide) MADLYENPMGLMGFEFIEFASPTPGTLEPIFEIMGFTKVATHRSKNVHLYRQGEINLILNNEPNSIASYFAAEHGPSVCGMAFRVKDSQKAYNRALELGAQPIHIDTGPMELNLPAIKGIGGAPLYLIDRFGEGSSIYDIDFVYLEGVERNPVGAGLKVIDHLTHNVYRGRMVYWANFYEKLFNFREARYFDIKGEYTGLTSKAMSAPDGMIRIPLNEESSKGAGQIEEFLMQFNGEGIQHVAFLTDDLVKTWDALKKIGMRFMTAPSDSYYEMLEGRLPDHGEPVDQLQARGILLDGSSVEGDKRLLLQIFSETLMGPVFFEFIQRKGDDGFGPHSFKVLFESKERDQVRRGVLTAD	%	95
